test: Components of the Cytosolic LPS Sensing Pathway: Gene Identification via Genome-wide siRNA Screen; conditions: RAW264.7 macrophages, IL-1a HTRF, actives lie on both sides, screened at 100 nM (by protocol), cells primed 5 h with Pam3CSK4 first
Screen size: about 53,000 sequences; about 3,700 (7%) were called active. This is one part of a sample in which actives are shown more often than they occur.
Recorded z-score determines the label; the label ranges are bottom bin (below -0.8), middle bin (-0.8 to below 0.4), top bin (0.4 or more)

{"sequenceRecord": "CCCAAUGACAAUAAAGACCTT against Mmp25", "labelClass": "bottom bin"}
{"sequenceRecord": "GGAGCUUAGACAAAAAGCCTT against Spty2d1", "labelClass": "bottom bin"}
{"sequenceRecord": "GGCAUCUAUACCAGUAAUATT against Mllt6", "labelClass": "middle bin"}
{"sequenceRecord": "CCGUCAUCCGAGCAAUCAGTT against Kcnq5", "labelClass": "middle bin"}
{"sequenceRecord": "CCCACGCUUAGCAAUAUCATT against Get3", "labelClass": "bottom bin"}
{"sequenceRecord": "GGCUUUGGAAUGAGAGCUUTT against Dynlrb1", "labelClass": "bottom bin"}
{"sequenceRecord": "GGUGAUGAAAGGGAAUGGCTT against Rnf25", "labelClass": "bottom bin"}
{"sequenceRecord": "GGAGGAUUCCCUCUAUAUUTT against Slc33a1", "labelClass": "middle bin"}
{"sequenceRecord": "GGACAUAUUGGAUGGUGAUTT against Usp2", "labelClass": "bottom bin"}
{"sequenceRecord": "GCACUUUGGGUUUAAGUACTT against Ndrg4", "labelClass": "top bin"}
{"sequenceRecord": "GGGCAUGGAACAAGAUGUCTT against Nckipsd", "labelClass": "bottom bin"}
{"sequenceRecord": "GGAGUAUAUCUCGUUUAUATT against Ube2e2", "labelClass": "middle bin"}
{"sequenceRecord": "GGGCUUCACUUCCUUAGGATT against Cog3", "labelClass": "middle bin"}
{"sequenceRecord": "GGGAUGGAAACCCUGGAUCTT against Col3a1", "labelClass": "top bin"}
{"sequenceRecord": "GGAUGCUCUAGUUCCAUUATT against Aym1", "labelClass": "top bin"}
{"sequenceRecord": "GGACCAUCUCUGAUGAACCTT against Fhdc1", "labelClass": "top bin"}
{"sequenceRecord": "GGUGGUCACCAAGAAGUUUTT against Prps2", "labelClass": "top bin"}
{"sequenceRecord": "GGAAAAUCUUGACUUCAUCTT against Cbwd1", "labelClass": "middle bin"}
{"sequenceRecord": "GGUGUGAUUGAAGAAGCGGTT against Gpr37", "labelClass": "middle bin"}
{"sequenceRecord": "GCCAGCGACCUUUAGUACATT against Cmtm1", "labelClass": "top bin"}
{"sequenceRecord": "GGUUUUCUCGCUCAGACCATT against Wt1", "labelClass": "middle bin"}
{"sequenceRecord": "GGGAUGGAGAAUCAAGAUATT against Tmem117", "labelClass": "bottom bin"}
{"sequenceRecord": "GGACUUCACCAUCCACGAATT against Pgap2", "labelClass": "top bin"}
{"sequenceRecord": "CCAUAUGUAGCUAUGGUUATT against Cul2", "labelClass": "top bin"}
{"sequenceRecord": "GGAAUACACUCAAUAUUGATT against Nupl1", "labelClass": "bottom bin"}

This collection of values is drawn from PubChem BioAssay AID1508600.
